- protocol_description: amyloid nucleation score (Sup35N fusion, yeast selection) (log enrichment); library NNK3; higher = more nucleation; inactive = no reads after selection;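 note: zero at mode of non-aggregating sequences after 7 days selection at 30°C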
measurement_label: amyloid nucleation score

# substance, data_value
records = [
    ("SICSEVGSSQLVVL", "inactive"),
    ("MILSESKYGFTFRLRVARQV", "inactive"),
    ("KCMFSIFSGAASVLLKMFMV", "inactive"),
    ("ILISMEPPLFRDTLKNTGNC", "inactive"),
    ("MDFCRRQIMLVVAFSCRLWL", "inactive"),
    ("LTRVTMGYIAEIQWNFMSKN", 1.56),
]

Then there is this substance:
[Q] Could you share which amyloid nucleation score value was measured for `TLRDKNLLEPIKCDWYTIKT` ?
[A] inactive

====

- protocol_description: amyloid nucleation score (Sup35N fusion, yeast selection) (log enrichment); library NNK3; higher = more nucleation; inactive = no reads after selection
measurement_label: amyloid nucleation score

Some solved entries appear below for comparison.
# substance, measurement_label, data_value
records = [
    ("RYPLSDDPLGIVWITYMLAN", "amyloid nucleation score", "inactive"),
    ("HRFAGTKVALYGVKLGGARY", "amyloid nucleation score", "inactive"),
    ("WMELTVIQCWMAA", "amyloid nucleation score", "inactive"),
    ("PGLRVNYFRGESLDVYIVEE", "amyloid nucleation score", 2.14),
    ("LRFRTDFSSASNK", "amyloid nucleation score", 1.18),
    ("LWGYGL", "amyloid nucleation score", "inactive"),
]

[Q] Could you share which amyloid nucleation score value was measured for `FTSKKLLCLDKPFNIGDCGY` ?
[A] inactive

[Q] Could you share which amyloid nucleation score value was measured for `DSHFKVYVPRQLREAREPVK` ?
[A] inactive

[Q] Could you share which amyloid nucleation score value was measured for `CSLYNLDRVTWTG` ?
[A] 0.219

[Q] Could you share which amyloid nucleation score value was measured for `KDQSRSARSST` ?
[A] inactive

[Q] Could you share which amyloid nucleation score value was measured for `NLPNGMFKIHVDG` ?
[A] inactive

====

- protocol_description: amyloid nucleation score (Sup35N fusion, yeast selection) (log enrichment); library NNK3; higher = more nucleation; inactive = no reads after selection
measurement_label: amyloid nucleation score

# substance, amyloid nucleation score
measured = [
    ("SKCSVGVLTRFR", "inactive"),
    ("TPVTGQQWNCFCTILHSE", 2.52),
    ("LDVIFSKTFMEIVTLVVSLD", "inactive"),
    ("IFNWPSQTVLHIYKSAHVNM", 2.35),
]

[Q] Could you share which amyloid nucleation score value was measured for `ISIPLLIMLPELGTASMVNG` ?
[A] inactive

[Q] Could you share which amyloid nucleation score value was measured for `YSLLSSMPLIRRRLGLYESW` ?
[A] inactive

====

- protocol_description: amyloid nucleation score (Sup35N fusion, yeast selection) (log enrichment); library NNK1; higher = more nucleation; inactive = no reads after selection
measurement_label: amyloid nucleation score

# substance, measurement_label, data_value
rows = [
    ("RPTYMCSGTGDFLHFVFR", "amyloid nucleation score", 4.64),
    ("QMDMCDYERFYLA", "amyloid nucleation score", "inactive"),
    ("ALVGMRQITEILVTRDRQWG", "amyloid nucleation score", 0.332),
    ("GLLVGLQQCYNYGWKGSDCN", "amyloid nucleation score", 0.504),
    ("TTIYRY", "amyloid nucleation score", 0.234),
]

[Q] Could you share which amyloid nucleation score value was measured for `AMGARMFRNYRTACAHLLQW` ?
[A] 0.019

[Q] Could you share which amyloid nucleation score value was measured for `MLFCVTRSVFSENCSLSLCT` ?
[A] inactive

[Q] Could you share which amyloid nucleation score value was measured for `VIDKDGVANGKVVLASHCVN` ?
[A] -0.766

[Q] Could you share which amyloid nucleation score value was measured for `CLPQLTDQPPKFHRLQFFCV` ?
[A] 0.348

====

- protocol_description: amyloid nucleation score (Sup35N fusion, yeast selection) (log enrichment); library NNK3; higher = more nucleation; inactive = no reads after selection
measurement_label: amyloid nucleation score

Some solved entries appear below for comparison.
# substance, amyloid nucleation score
records = [
    ("RYSVARIRCTTGNVDVYV", -0.281),
    ("RVMCRFIVRSLYAPDSHSLT", 1.54),
    ("QNPTWC", "inactive"),
    ("IFRSHMQSLGK", "inactive"),
    ("IQLAYIPEMALPTSWARVSG", "inactive"),
]

[Q] Could you share which amyloid nucleation score value was measured for `YDKCLQCARRHNSSILSPTG` ?
[A] inactive

[Q] Could you share which amyloid nucleation score value was measured for `QYLPGRTVFCMQIYDVQLYP` ?
[A] inactive

[Q] Could you share which amyloid nucleation score value was measured for `KYCGQLQFRCIELEGGIKRE` ?
[A] inactive

[Q] Could you share which amyloid nucleation score value was measured for `RGFFSHWSFDVTHYVLVRTL` ?
[A] inactive

====

- protocol_description: amyloid nucleation score (Sup35N fusion, yeast selection) (log enrichment); library NNK3; higher = more nucleation; inactive = no reads after selection
measurement_label: amyloid nucleation score

# substance, amyloid nucleation score
records = [
    ("PFGGMVLLILNDAFSMVYVS", "inactive"),
    ("KKMLEKKI", "inactive"),
    ("LPLFSLSTFFFVCVVCL", 0.464),
    ("VYMYVALPRSEDHNVF", "inactive"),
    ("SVSLYLNLVSLVYCLVCP", 1.26),
    ("FDSLFYCGYTYHYQVARKFR", "inactive"),
    ("SCSGAMTLWFRQPALKHIL", "inactive"),
    ("RASFVLRCFKIDDVVVQFHL", 1.23),
]

[Q] Could you share which amyloid nucleation score value was measured for `AGWGLLQSCRRFWEWCG` ?
[A] inactive

[Q] Could you share which amyloid nucleation score value was measured for `QSLLSVGEWNAQHMSLSSGR` ?
[A] inactive

[Q] Could you share which amyloid nucleation score value was measured for `GLTVVSE` ?
[A] inactive

[Q] Could you share which amyloid nucleation score value was measured for `CLLPVSVTLTASFLCQHVRY` ?
[A] 0.004

[Q] Could you share which amyloid nucleation score value was measured for `SVIRWFVTLWLGEHLRASDT` ?
[A] inactive

[Q] Could you share which amyloid nucleation score value was measured for `FSTVTYQGVTALVNQSSVTT` ?
[A] inactive

[Q] Could you share which amyloid nucleation score value was measured for `VINRSLCPERFGKGAL` ?
[A] inactive

[Q] Could you share which amyloid nucleation score value was measured for `WDMENFLD` ?
[A] inactive

[Q] Could you share which amyloid nucleation score value was measured for `SYFVALMSLRYMESTYWR` ?
[A] inactive

====

- protocol_description: amyloid nucleation score (Sup35N fusion, yeast selection) (log enrichment); library NNK3; higher = more nucleation; inactive = no reads after selection
measurement_label: amyloid nucleation score

Some solved entries appear below for comparison.
# substance, measurement_label, data_value
records = [
    ("GLSDGWVGHRSYGSENVLLK", "amyloid nucleation score", "inactive"),
    ("HWIISYQAGCFHLNTFKIMY", "amyloid nucleation score", "inactive"),
    ("FMGSGQVVNTRASGIMGLFF", "amyloid nucleation score", "inactive"),
    ("AYFDLWLM", "amyloid nucleation score", "inactive"),
]

[Q] Could you share which amyloid nucleation score value was measured for `ALQFATVDGKVLSI` ?
[A] inactive

[Q] Could you share which amyloid nucleation score value was measured for `RCRCTFYCFRVL` ?
[A] inactive

====

I'd be grateful if you could share measured amyloid nucleation score for these entries.
- protocol_description: amyloid nucleation score (Sup35N fusion, yeast selection) (log enrichment); library NNK1; higher = more nucleation; inactive = no reads after selection
No unit in the answer, only the number.

[Q] Could you share which amyloid nucleation score value was measured for `VCKVRRL` ?
[A] 0.461

[Q] Could you share which amyloid nucleation score value was measured for `YCAKNCEGFGRVYISG` ?
[A] -2.42

[Q] Could you share which amyloid nucleation score value was measured for `LEALGYLWDKWAYYAMVMRS` ?
[A] 0.836

[Q] Could you share which amyloid nucleation score value was measured for `TVHTLSIFFSGRAFAANPFS` ?
[A] 2.36

[Q] Could you share which amyloid nucleation score value was measured for `GSSWYNNPVQGILGGYNL` ?
[A] -0.348

[Q] Could you share which amyloid nucleation score value was measured for `DYNIVYYNLYNTYINNYQSF` ?
[A] 7.72

[Q] Could you share which amyloid nucleation score value was measured for `VRENLNMLEIHRLGGVKKCV` ?
[A] -1.06

[Q] Could you share which amyloid nucleation score value was measured for `FNLATIPISQFITPNSPLLR` ?
[A] -0.091

[Q] Could you share which amyloid nucleation score value was measured for `GLKGDIWDMGYSFGWRDGDA` ?
[A] 0.297

[Q] Could you share which amyloid nucleation score value was measured for `SALLEQRLSSGLDVAISLRI` ?
[A] -0.368

[Q] Could you share which amyloid nucleation score value was measured for `NSFRWDLTLLLWARINVDSF` ?
[A] 1.49

[Q] Could you share which amyloid nucleation score value was measured for `QWKGSFSSV` ?
[A] -0.873

[Q] Could you share which amyloid nucleation score value was measured for `SFWNSLV` ?
[A] 0.468

[Q] Could you share which amyloid nucleation score value was measured for `GSARYCSYCWRTSDITWIIH` ?
[A] 1.71

[Q] Could you share which amyloid nucleation score value was measured for `SLTTHSAGHPLYIHVFNVLV` ?
[A] 0.147

[Q] Could you share which amyloid nucleation score value was measured for `KVSVRYSNYSCVYFVYCRW` ?
[A] 0.279
